target: recombinant soluble homotrimeric HA of A/Egypt/3300-NAMRU3/08 (H5N1) (Influenza A virus A/Egypt/3300-NAMRU3/2008(H5N1)); assay: HA microarray, BCC supernatant; details: remark: other sources report otherwise
Attribute: Trimeric HA Binding: RLU
Give just the number in RLU; leave the unit off.

# count of solved cases: 5
TCN-552 (5249_I23) (antibody, V domains shown) VH: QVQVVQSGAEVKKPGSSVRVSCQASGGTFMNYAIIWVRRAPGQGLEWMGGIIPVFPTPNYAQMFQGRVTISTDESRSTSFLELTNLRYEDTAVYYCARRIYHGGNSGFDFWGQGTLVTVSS VL: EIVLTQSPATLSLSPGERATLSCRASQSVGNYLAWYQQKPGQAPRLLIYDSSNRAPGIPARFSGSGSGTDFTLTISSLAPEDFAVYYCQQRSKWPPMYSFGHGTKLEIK: 40000
TCN-535 (5246_P19) (antibody, V domains shown) VH: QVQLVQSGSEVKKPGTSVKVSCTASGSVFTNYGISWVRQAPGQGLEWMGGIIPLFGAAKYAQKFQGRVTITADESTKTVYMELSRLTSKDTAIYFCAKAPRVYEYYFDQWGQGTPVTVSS VL: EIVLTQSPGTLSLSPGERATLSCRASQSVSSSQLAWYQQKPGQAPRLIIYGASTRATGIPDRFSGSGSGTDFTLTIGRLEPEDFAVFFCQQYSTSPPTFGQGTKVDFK: 39400
TCN-551 (5243_D01) (antibody, V domains shown) VH: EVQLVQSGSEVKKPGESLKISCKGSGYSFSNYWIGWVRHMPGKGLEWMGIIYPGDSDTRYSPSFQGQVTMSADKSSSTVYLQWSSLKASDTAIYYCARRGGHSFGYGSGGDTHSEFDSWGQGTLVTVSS VL: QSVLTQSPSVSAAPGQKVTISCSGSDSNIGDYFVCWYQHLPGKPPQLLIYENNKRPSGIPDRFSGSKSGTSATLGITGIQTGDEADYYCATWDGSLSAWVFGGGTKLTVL: 47200
TCN-553 (5261_C18) (antibody, V domains shown) VH: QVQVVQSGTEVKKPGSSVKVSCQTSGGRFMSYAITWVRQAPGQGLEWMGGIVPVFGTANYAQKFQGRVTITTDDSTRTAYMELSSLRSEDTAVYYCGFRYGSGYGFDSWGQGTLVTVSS VL: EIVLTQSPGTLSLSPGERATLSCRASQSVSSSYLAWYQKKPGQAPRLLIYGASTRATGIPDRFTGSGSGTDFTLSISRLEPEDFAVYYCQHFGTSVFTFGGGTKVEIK: 18800
TCN-538 (3206_O17) (antibody, V domains shown) VH: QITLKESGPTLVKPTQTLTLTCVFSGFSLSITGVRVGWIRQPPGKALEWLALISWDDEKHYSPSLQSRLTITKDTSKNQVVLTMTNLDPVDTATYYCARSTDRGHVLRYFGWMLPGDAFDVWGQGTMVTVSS VL: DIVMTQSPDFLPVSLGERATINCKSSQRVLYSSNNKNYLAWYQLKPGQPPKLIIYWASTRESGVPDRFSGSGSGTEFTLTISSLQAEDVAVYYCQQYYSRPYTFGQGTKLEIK: 23600

Indicate its recorded Trimeric HA Binding: RLU; the binder in question is TCN-537 (3194_D21) (antibody, V domains shown) VH: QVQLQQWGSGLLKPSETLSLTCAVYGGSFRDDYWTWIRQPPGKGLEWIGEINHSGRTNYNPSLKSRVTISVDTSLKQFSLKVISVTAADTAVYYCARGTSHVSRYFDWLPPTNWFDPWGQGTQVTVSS VL: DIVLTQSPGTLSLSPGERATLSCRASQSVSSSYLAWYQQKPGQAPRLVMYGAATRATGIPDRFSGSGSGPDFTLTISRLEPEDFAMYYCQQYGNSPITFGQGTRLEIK
38200
